target: TAK1-TAB1 fusion protein (Homo sapiens, UniProt O43318)
Construct: purchased Carna
Sequence (O43318 with tags, fused parts or gaps limits assumed): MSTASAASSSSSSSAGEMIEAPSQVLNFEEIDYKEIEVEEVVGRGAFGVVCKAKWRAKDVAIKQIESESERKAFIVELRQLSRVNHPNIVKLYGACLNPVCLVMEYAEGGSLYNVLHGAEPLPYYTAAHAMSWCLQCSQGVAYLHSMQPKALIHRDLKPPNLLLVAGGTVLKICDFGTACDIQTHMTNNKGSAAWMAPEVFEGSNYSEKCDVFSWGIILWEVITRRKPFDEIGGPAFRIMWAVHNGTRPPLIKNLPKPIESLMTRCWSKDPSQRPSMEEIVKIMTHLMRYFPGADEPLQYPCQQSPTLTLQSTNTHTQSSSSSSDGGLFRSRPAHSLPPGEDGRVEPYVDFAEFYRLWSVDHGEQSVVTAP
test_name: TAK1 biochemical assay (AlphaScreen, GST-MAP2K7 substrate)
condition_parameters: TAK1-TAB1 fusion protein, GST-MAP2K7 substrate; read-out: mean TAK1 IC50 (Col. A)
property_measured: IC50

// worked examples, IC50 included
compound: Nc1ncc(-c2cnn(C3CCNCC3)c2)c2cc(-c3cccc4nn[nH]c34)oc12 [Example 46]
target: TAK1-TAB1 fusion protein (Homo sapiens, UniProt O43318)
IC50: 1000 to 10000 nM
//
compound: CC(=O)N1CCC(n2cc(-c3cnc(N)c4oc(-c5ccc(N)nc5)cc34)cn2)CC1 [Example 147]
target: TAK1-TAB1 fusion protein (Homo sapiens, UniProt O43318)
IC50: 100 to 1000 nM

Reported IC50 ( COc1nn([C@H]2CC[C@@H](O)CC2)cc1-c1cnc(N)c2oc(-c3csc4cnccc34)cc12 [Example 303] ) = 100 to 1000 nM

Reported IC50 ( CCOC(=O)Cn1cc(-c2cnc(N)c3oc(-c4cccc5cnccc45)cc23)cn1 [Example 59] ) = 1000 to 10000 nM

====

Tested on: pJNK in HCT-116 cells
test_name: Phospho-JNK (Thr183/Tyr185) Meso Scale ELISA assay, TNFα-stimulated HCT-116 cells
Type: cell-based
condition_parameters: Homo sapiens, read-out: mean HCT-116 pJNK ELISA IC50 (Col. B)
pIC50: −log10 of the molar value. Structures can show the parent of a compound that is named as a salt.
Measured pIC50, listed per entry.

// worked examples, pIC50 included
compound: Nc1ncc(-c2cnn(C3CCN(CC(F)(F)F)CC3)c2)c2cc(-c3cccc4cnccc34)oc12
pIC50: 6.00 to 7.00
//
compound: CC(=O)N1CCC(n2cc(-c3cnc(N)c4oc(-c5ccc6[nH]ccc6c5)cc34)cn2)CC1
pIC50: 6.00 to 7.00
//
compound: CC(=O)N1CCC(n2cc(-c3cnc(N)c4oc(-c5ccc(S(C)(=O)=O)cc5)cc34)cn2)CC1
pIC50: < 5.00
//
compound: Cc1nn(C)cc1-c1cnc(N)c2oc(-c3csc4cnccc34)cc12
pIC50: 6.00 to 7.00
//
compound: CSc1cccc(-c2cc3c(-c4cnn(C5CCN(C(C)=O)CC5)c4)cnc(N)c3o2)c1
pIC50: 5.00 to 6.00

Reported pIC50 ( "CC(C)(C)OC(=O)N1CCC(n2cc(-c3cnc(N)c4oc(-c5csc6cnccc56)cc34)cn2)CC1" ) = 6.00 to 7.00

Reported pIC50 ( "CC(=O)N1CC(n2cc(-c3cnc(N)c4oc(-c5csc6cnccc56)cc34)cn2)C1" ) = 6.00 to 7.00

Reported pIC50 ( "CC(=O)N1CCC(n2cc(-c3cnc(N)c4oc(-c5cn[nH]c5)cc34)cn2)CC1" ) = 5.00 to 6.00

Reported pIC50 ( "CCSc1ccccc1-c1cc2c(-c3cnn(C4CCN(C(C)=O)CC4)c3)cnc(N)c2o1" ) = 6.00 to 7.00

Reported pIC50 ( "CC(=O)N1CCC(n2cc(-c3cnc(N)c4oc(-c5ccccc5)cc34)cn2)CC1" ) = 6.00 to 7.00

Reported pIC50 ( "CC(=O)N1CCC(n2cc(-c3cnc(N)c4oc(C5=CCCCC5)cc34)cn2)CC1" ) = 6.00 to 7.00

Reported pIC50 ( "CC(=O)N1CCC(n2cc(-c3cnc(N)c4oc(-c5cccc(OCC#N)c5)cc34)cn2)CC1" ) = 6.00 to 7.00

Reported pIC50 ( CC(=O)N1CCC(n2cc(-c3cnc(N)c4oc(-c5ccc(F)c6cnsc56)cc34)cn2)CC1 [Example 223, diformate salt] ) = 6.00 to 7.00

Reported pIC50 ( CC(=O)N1CCC(n2cc(-c3cnc(N)c4oc(-c5cccc6sncc56)cc34)cn2)CC1 [Example 241, diformate Salt] ) = > 7.00

Reported pIC50 ( "Nc1ncc(-c2cnn(C3CCN(C(=O)C4CC4)CC3)c2)c2cc(-c3cccc4cnccc34)oc12" ) = 6.00 to 7.00

Reported pIC50 ( "N#Cc1ccc2cnsc2c1-c1cc2c(-c3cnn([C@H]4CC[C@H](O)CC4)c3)cnc(N)c2o1" ) = 6.00 to 7.00
